target: Factor X (FX), P00742
Sequence (P00742 whole entry, looked up): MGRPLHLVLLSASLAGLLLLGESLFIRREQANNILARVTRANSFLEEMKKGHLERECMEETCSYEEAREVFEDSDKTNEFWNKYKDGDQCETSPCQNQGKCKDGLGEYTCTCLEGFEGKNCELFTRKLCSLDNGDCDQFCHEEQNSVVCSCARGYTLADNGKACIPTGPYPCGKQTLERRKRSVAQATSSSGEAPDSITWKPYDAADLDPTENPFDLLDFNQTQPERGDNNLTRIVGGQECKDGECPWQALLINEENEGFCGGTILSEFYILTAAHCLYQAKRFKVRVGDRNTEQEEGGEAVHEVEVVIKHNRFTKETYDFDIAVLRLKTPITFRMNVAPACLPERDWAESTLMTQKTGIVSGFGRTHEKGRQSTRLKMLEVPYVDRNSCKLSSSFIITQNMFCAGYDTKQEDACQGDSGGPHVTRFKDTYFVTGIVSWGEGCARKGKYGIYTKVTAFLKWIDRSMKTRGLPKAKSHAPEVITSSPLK
Value type: KM (FX activation by FIXa in the Xase complex with FVIIIa, PC/PS vesicles and Ca2+)
Don't forget the unit after the value.

FIXa A103N/N105S/K247N/N249S/R318Y/R338E/R403E/E410N (protein) chain 1: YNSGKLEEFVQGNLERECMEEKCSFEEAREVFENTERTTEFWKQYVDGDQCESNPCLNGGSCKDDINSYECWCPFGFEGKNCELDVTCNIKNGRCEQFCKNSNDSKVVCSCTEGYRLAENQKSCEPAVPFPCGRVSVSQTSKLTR chain 2: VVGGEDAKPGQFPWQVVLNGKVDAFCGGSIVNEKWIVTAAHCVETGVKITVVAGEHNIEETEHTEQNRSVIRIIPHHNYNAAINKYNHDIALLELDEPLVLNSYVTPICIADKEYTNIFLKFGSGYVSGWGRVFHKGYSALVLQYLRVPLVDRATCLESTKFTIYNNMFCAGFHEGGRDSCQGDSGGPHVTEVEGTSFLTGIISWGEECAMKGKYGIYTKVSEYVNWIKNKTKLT	0.028 µM
FIXa Y155F/K228N/K247N/N249S (protein) chain 1: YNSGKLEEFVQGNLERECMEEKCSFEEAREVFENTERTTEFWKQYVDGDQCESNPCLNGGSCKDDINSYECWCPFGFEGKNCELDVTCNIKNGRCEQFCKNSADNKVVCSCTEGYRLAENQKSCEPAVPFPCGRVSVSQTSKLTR chain 2: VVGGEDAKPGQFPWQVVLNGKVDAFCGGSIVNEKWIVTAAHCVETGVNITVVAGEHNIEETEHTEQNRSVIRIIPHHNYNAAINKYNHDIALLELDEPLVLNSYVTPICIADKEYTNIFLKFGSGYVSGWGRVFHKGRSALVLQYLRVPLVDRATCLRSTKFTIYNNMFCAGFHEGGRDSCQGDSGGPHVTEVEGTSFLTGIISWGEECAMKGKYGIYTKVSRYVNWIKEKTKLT	0.0792 µM

Q. Query: KM (FX activation by FIXa in the Xase complex with FVIIIa, PC/PS vesicles and Ca2+); subject: FIXa D104N/K106S/Y155F/K247N/N249S/R318Y/R338E/R403E/E410N (protein) chain 1: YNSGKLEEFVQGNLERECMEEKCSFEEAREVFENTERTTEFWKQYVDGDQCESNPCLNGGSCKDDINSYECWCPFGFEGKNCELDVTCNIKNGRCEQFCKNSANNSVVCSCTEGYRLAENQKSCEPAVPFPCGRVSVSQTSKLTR chain 2: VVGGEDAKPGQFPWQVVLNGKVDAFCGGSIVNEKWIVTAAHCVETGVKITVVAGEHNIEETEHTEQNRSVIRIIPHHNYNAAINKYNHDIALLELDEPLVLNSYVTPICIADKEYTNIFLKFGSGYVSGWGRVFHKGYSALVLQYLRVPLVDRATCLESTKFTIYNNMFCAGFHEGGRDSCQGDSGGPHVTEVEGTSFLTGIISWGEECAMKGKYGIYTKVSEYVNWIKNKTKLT
A. 0.0518 µM

Q. I would be grateful if you could share the reported KM (FX activation by FIXa in the Xase complex with FVIIIa, PC/PS vesicles and Ca2+) for FIXa R318Y/R338E/R403E/E410S (protein) chain 1: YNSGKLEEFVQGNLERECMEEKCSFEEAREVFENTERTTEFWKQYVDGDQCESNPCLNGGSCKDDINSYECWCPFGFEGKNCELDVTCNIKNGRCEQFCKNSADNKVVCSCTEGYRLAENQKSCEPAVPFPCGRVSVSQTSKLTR chain 2: VVGGEDAKPGQFPWQVVLNGKVDAFCGGSIVNEKWIVTAAHCVETGVKITVVAGEHNIEETEHTEQKRNVIRIIPHHNYNAAINKYNHDIALLELDEPLVLNSYVTPICIADKEYTNIFLKFGSGYVSGWGRVFHKGYSALVLQYLRVPLVDRATCLESTKFTIYNNMFCAGFHEGGRDSCQGDSGGPHVTEVEGTSFLTGIISWGEECAMKGKYGIYTKVSEYVNWIKSKTKLT .
A. 0.0364 µM
